# METHOD: ATG_MRE_CIS: Attagene CIS-FACTORIAL HepG2 Assay for human Metal Responsive Element (MRE) (AID 2282954)
# ASSAY_SETUP: HepG2 MRE cis-reporter transcription, Attagene multiplex; actives raise or lower the signal
The source made the active and inactive calls. The calls were made as follows: active = hit-call score of the fitted dose curve at least 0.9, where 1 is the maximum; inactive = score below 0.9.
The categories you may choose from are True for active, False for inactive

compound=COC(=O)C(F)(F)C(F)(F)C(F)(F)F cat=False
compound=CCCC=O cat=False
compound=CCOCCOCC cat=False
compound=CC[N+](CC)(CC)Cc1ccccc1 cat=False
compound=CCCCCCCC(OC)OC cat=False
compound="CCC(C)c1nccnc1OC (centres undefined)" cat=False
compound="c1ccc(CNc2ncnc3c2ncn3C2CCCCO2)cc1 (centres undefined)" cat=False
compound="CCCCCCCCCC=CCC1CC(=O)OC1=O (centres undefined)" cat=False
compound=O=C(O)CCC(F)(F)C(F)(F)C(F)(F)C(F)(F)C(F)(F)C(F)(F)F cat=False
compound=CCCCCCCCCCCC[N+](C)(C)Cc1ccccc1 cat=False

Answer briefly: the call reported for FC(F)(F)C1(F)C(F)(F)C(F)(F)C(F)(F)C(F)(C(F)(F)F)C1(F)F (centres undefined) in this assay.
False

Param item: `OCCN1CN(CCO)CN(CCO)C1`
True

Now the same for `CCN(CC)CC`
False

Now consider `CCCCCCOC(=O)c1ccc(O)cc1` .
True

* * *

# Read-out: Transforming growth factor beta 1 (TGFb1), TGFB1 (gene 7040)
# METHOD: BSK_KF3CT_TGFb1: BioMAP Diversity Plus: KF3CT Assay for Transforming growth factor beta 1 (TGFb1) Biomarker Activity (AID 2283072)
# ASSAY_SETUP: primary human keratinocytes with fibroblasts; actives raise or lower the signal
The source made the active and inactive calls. How the source made its calls: active means hit-call score of the fitted dose curve at least 0.9, where 1 is the maximum; inactive means score below 0.9.
Assign a class; possible classes are true = active, false = inactive

smiles_entry=CC[N+](CC)(CC)Cc1ccccc1 cat=false
smiles_entry=CC1=NN(c2ccccc2)C(=O)C1 cat=false

What was the test verdict on `O=C(NO)c1ccccc1` ?
false

Entry `Clc1ccc(Nc2nnc(Cc3ccncc3)c3ccccc23)cc1` please
true

Same question for `Cc1ccc(N=Nc2c(O)ccc3ccccc23)c(C)c1` please.
false

Next molecule up: `CCCCCCCCCCCCOS(=O)(=O)O`
true

Same lookup for `C=COC(=O)C(C)(C)CCCCCC` , please.
false

Consider next the molecule `CC(=O)Nc1ccc(O)cc1` in the same way.
false

Further, for `CN(C)c1ccc(C(=C2C=CC(=[N+](C)C)C=C2)c2ccccc2)cc1` ?
true

Moving on to the next molecule: `Oc1cc2ccccc2cc1O`
false

Repeat with `O=C(c1ccccc1)c1ccccc1`
false

* * *

# Read-out: Urokinase-type plasminogen activator receptor (uPAR), PLAUR (gene 5329)
# METHOD: BSK_CASM3C_uPAR: BioMAP Diversity Plus: CASM3C Assay for Urokinase-type plasminogen activator receptor (uPAR) Biomarker Activity (AID 2283054);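 also: cell-surface uPAR protein level quantified by ELISA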
# ASSAY_SETUP: primary human coronary artery smooth muscle cells; actives raise or lower the signal
Activity calls are given as the source filed them. Rule for the calls: active = hit-call score of the fitted dose curve at least 0.9, where 1 is the maximum; inactive = score below 0.9.
ASSAY_METRIC: AC50

# annotated cases, reported AC50 shown
compound=CCOC(=O)CN[C@@H](C(=O)N1CC[C@H]1C(=O)NCc1ccc(/C(N)=N/O)cc1)C1CCCCC1 assay_metric=AC50 measured=inactive
compound=O=C(O)C(F)(F)OC(F)(F)C(F)(F)OC(F)(F)C(F)(F)OC(F)(F)C(F)(F)C(F)(F)C(F)(F)F assay_metric=AC50 measured=inactive
compound=NC(=NCCCCCCN=C(N)/N=C(\N)Nc1ccc(Cl)cc1)/N=C(\N)Nc1ccc(Cl)cc1 assay_metric=AC50 measured="4.86 µM (active)"
compound=CC1=NN(c2ccccc2)C(=O)C1 assay_metric=AC50 measured=inactive
compound=CN(CCO)S(=O)(=O)C(F)(F)C(F)(F)C(F)(F)C(F)(F)C(F)(F)C(F)(F)C(F)(F)C(F)(F)F assay_metric=AC50 measured=inactive

AC50 lookup needed for CCCCC(CC)C(=O)OCCOCCOCCOCCOC(=O)C(CC)CCCC (stereo not given) , thanks.
inactive

Now consider `OCC(F)(F)C(F)(F)C(F)(F)C(F)(F)C(F)(F)C(F)(F)C(F)(F)C(F)(F)C(F)(F)C(F)(F)C(F)(F)F` and answer again.
inactive

Could you do the same for `Clc1ccc(Nc2nnc(Cc3ccncc3)c3ccccc23)cc1` , please?
inactive

Again, but for `CCCCCCCCCCCCCCCCCC[N+](C)(C)Cc1ccccc1`
2.77 µM (active)

And then `O=C(O)CCC(F)(F)C(F)(F)C(F)(F)C(F)(F)C(F)(F)F` , what is it?
inactive

* * *

# Read-out: Tumor necrosis factor (Homo sapiens)
# METHOD: BSK_BT_xTNFa: BioMAP Diversity Plus: BT Assay for Tumor necrosis factor alpha (TNF-alpha) Biomarker Activity (AID 2284230)
# ASSAY_SETUP: primary human B cells with PBMC
Activity calls are given as the source filed them. How the source made its calls: active means hit-call score of the fitted dose curve at least 0.9, where 1 is the maximum; inactive means score below 0.9.
Write down the outcome that applies. Available outcomes: active, inactive

compound=NC(=NCCCCCCN=C(N)/N=C(\N)Nc1ccc(Cl)cc1)/N=C(\N)Nc1ccc(Cl)cc1 cat=active
compound="C=CC(C)(CCC=C(C)C)OC(C)=O (stereo not given)" cat=inactive
compound=COCN(COC)c1nc(N(COC)COC)nc(N(COC)COC)n1 cat=inactive
compound="CCCCC(CC)C(=O)OCCOCCOCCOCCOC(=O)C(CC)CCCC (stereo not given)" cat=active

// param item: `O=C(NCc1ncc(C(F)(F)F)cc1Cl)c1c(Cl)cccc1Cl` ; yields the recorded call
active

* * *

# METHOD: ACEA_AR_agonist_AUC_viability: ACEA Biosciences xCELLigence Real-Time Cell Analysis on Androgen Receptor Agonism for Viability (AID 2283775)
Inconclusive results are not listed. Activity calls are given as the source filed them. Rule for the calls: active = hit-call score of the fitted dose curve at least 0.9, where 1 is the maximum; inconclusive = response in the unintended direction; inactive = score below 0.9.
Respond with a class label; see 1 for active, -1 for inactive

Examples with answers:
molecule=O=C(CCCN1CCC(O)(c2ccc(Cl)cc2)CC1)c1ccc(F)cc1 cat=1
molecule=Cc1cc(C(C)(C)C)c(O)c(C(C)(C)C)c1 cat=-1
molecule=O=C1NS(=O)(=O)c2ccccc21 cat=-1

So what was the verdict on CCC(C)c1ccccc1O (stereo not drawn) in this test?
-1

Same question for `NCc1cccc(CN)c1` please.
-1

Entry `CCCCCCCCCCCCOC(=O)c1cc(O)c(O)c(O)c1` please
1

# iterate: CC(O)COc1ccccc1 (stereo not drawn)
-1

Do the same for `c1cnc2c(c1)ccc1cccnc12` please
1

Next up: `Cc1cc(Cc2cc(C)cc(C(C)(C)C)c2O)c(O)c(C(C)(C)C)c1`
-1

Now the same for `Cc1ccc(C)c(S(=O)(=O)O)c1`
-1

* * *

# METHOD: ATG_TA_CIS: Attagene CIS-FACTORIAL HepG2 Assay for human TA Basal Promoter (AID 2282964)
# ASSAY_SETUP: HepG2 Attagene CIS-factorial TA basal promoter reporter; actives raise or lower the signal
Calls of active or inactive are those of the source. How the source made its calls: active means hit-call score of the fitted dose curve at least 0.9, where 1 is the maximum; inactive means score below 0.9.
Just give me one of these, please: y = active, n = inactive

Use the examples below as a reference point.
compound=CC=O cat=n
compound=Oc1c(Cl)cc(Cl)cc1Sc1cc(Cl)cc(Cl)c1O cat=n
compound=CCCCCCCCCCCC[N+](C)(C)CCCCCCCCCCCC cat=y
compound="CCCCCCCCC1CCC(=O)O1 (centres undefined)" cat=n

Record lookup: outcome of this test for CCC1CO1 (centres undefined) ?
n

// same read-out, input: `Cc1ccc(C(=O)c2ccccc2)cc1`
n

And what about the compound `COC(=O)C(F)(F)C(F)(F)C(F)(F)F` ?
n

Then what about the compound `c1cnc2c(c1)ccc1cccnc12` ?
n

* * *

# Read-out: Matrix Metallopeptidase 9 (MMP9), MMP9 (gene 4318)
# METHOD: BSK_KF3CT_MMP9: BioMAP Diversity Plus: KF3CT Assay for Matrix Metallopeptidase 9 (MMP9) Biomarker Activity (AID 2283074)
# ASSAY_SETUP: primary human keratinocytes with fibroblasts; actives raise or lower the signal
# Method: BSK_KF3CT is a cell-based, multiplexed-readout assay that uses keratinocytes and foreskin fibroblasts, a human skin primary cell co-culture, with measurements taken at 24 hours after chemical dosing in a 96-well plate.BSK_KF3CT_MMP9 is an assay component measured in the BSK_KF3CT assay. It measures MMP-9 antibody related to regulation of gene expression using ELISA technology.Data from the assay component BSK_KF3CT_MMP9 was analyzed into 1 assay endpoint. […]
Activity calls are given as the source filed them. Rule for the calls: active = hit-call score of the fitted dose curve at least 0.9, where 1 is the maximum; inactive = score below 0.9.
Hi there, use one of these labels in your reply, thanks! active, inactive

molecule=COC1=CC(=O)C[C@@H](C)[C@]12Oc1c(Cl)c(OC)cc(OC)c1C2=O cat=active
molecule="CCCCC(CC)C(=O)OCCOCCOCCOCCOC(=O)C(CC)CCCC (configuration not stated)" cat=inactive
molecule=CC[N+](CC)(CC)Cc1ccccc1 cat=inactive
molecule=CN(C)CCOC(c1ccccc1)c1ccccc1 cat=inactive

Query: recorded result category for C=CC(C)(CCC=C(C)C)OC(C)=O (configuration not stated) in this test
active

Cool, now `O=P(O)(O)CCC(F)(F)C(F)(F)C(F)(F)C(F)(F)C(F)(F)C(F)(F)F`
inactive

Try the molecule `O=P(O)(O)CCC(F)(F)C(F)(F)C(F)(F)C(F)(F)C(F)(F)C(F)(F)C(F)(F)C(F)(F)F`
inactive

Do the same for `CC(C)(C)c1ccc(O)c(O)c1` please
active

Here is the next molecule: `OCC(CO)(CBr)CBr`
inactive

Param item: `O=C(NCc1ncc(C(F)(F)F)cc1Cl)c1c(Cl)cccc1Cl`
inactive

Input `Cc1cccc2c1ccc1ccccc12`
inactive

# repeat for `CCCCc1oc2ccccc2c1C(=O)c1cc(I)c(OCCN(CC)CC)c(I)c1`
active

Param item: `C=CC(=C)CC/C=C(\C)CCC=C(C)C`
inactive

Follow-up item: `Oc1cc2ccccc2cc1O`
inactive

Please give the result for `CN(C)c1ccc(C(=C2C=CC(=[N+](C)C)C=C2)c2ccccc2)cc1` too.
active

Also, `Cc1ccc(C(=O)c2ccccc2)cc1` please.
inactive

Similarly, `O=C(NO)c1ccccc1` ?
inactive
